# assayed-target: UniProt P36897
# Sequence (P36897 whole entry, looked up): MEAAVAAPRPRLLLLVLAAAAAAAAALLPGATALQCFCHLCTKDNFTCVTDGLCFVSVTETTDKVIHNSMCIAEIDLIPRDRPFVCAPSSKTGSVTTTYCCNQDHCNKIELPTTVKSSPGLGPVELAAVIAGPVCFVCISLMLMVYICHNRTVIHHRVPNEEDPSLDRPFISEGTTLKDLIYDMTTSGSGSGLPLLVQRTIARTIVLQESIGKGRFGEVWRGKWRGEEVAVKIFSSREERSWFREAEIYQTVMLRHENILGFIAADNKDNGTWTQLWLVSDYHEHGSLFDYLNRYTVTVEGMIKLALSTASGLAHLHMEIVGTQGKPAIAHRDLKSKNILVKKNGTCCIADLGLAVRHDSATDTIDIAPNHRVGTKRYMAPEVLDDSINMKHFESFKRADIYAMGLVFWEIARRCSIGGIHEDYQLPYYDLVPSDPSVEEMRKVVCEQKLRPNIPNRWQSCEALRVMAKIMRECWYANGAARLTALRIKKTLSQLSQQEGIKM
# assay-method-text: KINOMEscan competition binding
# condition-set: compound 10.0 µM
# key: entry, value: kinase still bound, per cent of control
result-type: kinase still bound, per cent of control (%)

INSERT INTO measurements (smiles_representation, unit_name, test_result) VALUES
  ('CN1CCN(c2ccc(C(=O)Nc3ncc4c(n3)N(C)c3ccccc3C(=O)N4C)cc2)CC1', '%', 100),
  ('COc1cc(N2CCN(C)CC2)ccc1Nc1ncc2c(n1)N(C)c1sccc1C(=O)N2C', '%', 100),
  ('COc1cc(N2CCC(O)CC2)ccc1Nc1ncc2c(n1)N1CCc3cccc(c31)C(=O)N2C', '%', 100),
  ('CN1C(=O)c2ccccc2N(C)c2nc(Nc3ccc(N4CCC(O)CC4)cc3)ncc21', '%', 73),
  ('N=C1NC(=O)/C(=C/c2ccc(-c3cncc4ccccc34)o2)S1', '%', 34);

---

# assayed-target: JAK2 JH1 catalytic (human)
# assay-method-text: KINOMEscan competition binding
# condition-set: compound 10.0 µM
result-type: kinase still bound, per cent of control (%)

INSERT INTO assay_data (smiles_representation, test_result) VALUES
  ('Nc1cccc(-c2cc(/C=C3\SC(=O)NC3=O)c[nH]c2=O)c1', 6.6),
  ('COc1cc(N2CCN(C)CC2)ccc1Nc1ncc2c(n1)N(C)c1ccccc1N(C)C2=O', 100),
  ('COc1cc(N2CCN(C)CC2)ccc1Nc1ncc2c(n1)Nc1ccccc1NC2=O', 85);

---

# assayed-target: MKNK2 (human)
# assay-method-text: KINOMEscan competition binding
# condition-set: compound 10.0 µM
# key: entry, value: kinase still bound, per cent of control
result-type: kinase still bound, per cent of control (%)

INSERT INTO assay_data (smiles_representation, assayed_target, test_result) VALUES
  ('O=C1NC(=S)S/C1=C\c1ccc(-c2cncc3ccccc23)o1', 'MKNK2 (human)', 23),
  ('N=C1NC(=O)/C(=C/c2ccc(-c3cccc4cc[nH]c34)o2)S1', 'MKNK2 (human)', 11),
  ('NS(=O)(=O)c1ccc(-c2ccc(/C=C3\C(=O)Nc4cccc(Br)c43)o2)cc1', 'MKNK2 (human)', 34),
  ('COc1cc(N2CCN(C)CC2)ccc1Nc1ncc2c(n1)Nc1ccccc1NC2=O', 'MKNK2 (human)', 69),
  ('CN1C(=O)c2ccccc2N(C)c2nc(Nc3ccc(N4CCC(O)CC4)cn3)ncc21', 'MKNK2 (human)', 1.6),
  ('COc1cc(N2CCC(O)CC2)ccc1Nc1ncc2c(n1)N(C)c1ccccc1C(=O)N2C', 'MKNK2 (human)', 0);

---

# System: ABL1 (human), P00519 [T315I]
# assay-method-text: KINOMEscan competition binding
# condition-set: compound 10.0 µM
Measured kinase still bound, per cent of control determines class: lowest: < 50%; middle: ≥ 50% and < 80%; highest: ≥ 80%

INSERT INTO assay_data (smiles_representation, label) VALUES
  ('CN1C(=O)c2ccccc2N(C)c2nc(NS(=O)(=O)c3ccc(N)cc3)ncc21', 'highest'),
  ('O=C1NC(=O)/C(=C/c2c[nH]c(=O)c(-c3ccc(N4CCNCC4)nc3)c2)S1', 'middle'),
  ('CN1CCN(c2ccc(C(=O)Nc3ncc4c(n3)N(C)c3ccccc3C(=O)N4C)cc2)CC1', 'highest'),
  ('CN1C(=O)c2ccccc2N(C)c2nc(Nc3ccc(N4CCC(O)CC4)cc3)ncc21', 'lowest'),
  ('COc1cc(N2CCN(C)CC2)ccc1Nc1ncc2c(n1)N(C)c1ccccc1N(C)C2=O', 'highest'),
  ('COc1cc(N2CCC(O)CC2)ccc1Nc1ncc2c(n1)N1CCc3cccc(c31)C(=O)N2C', 'highest'),
  ('CS(=O)(=O)Nc1ccc(-c2ncc(/C=C3\SC(=N)NC3=O)s2)cc1', 'lowest'),
  ('COc1cc(N2CCN(C)CC2)ccc1Nc1ncc2c(n1)N(C)c1sccc1C(=O)N2C', 'middle'),
  ('COc1cc(N2CCN(C)CC2)ccc1Nc1ncc2c(n1)Nc1ccccc1NC2=O', 'lowest'),
  ('CN1C(=O)c2ccccc2N(C)c2nc(Nc3ccc(N4CCC(O)CC4)cn3)ncc21', 'lowest');

---

# key: entry, value: kinase still bound, per cent of control
# assayed-target: UniProt:P51955
# Sequence (P51955 whole entry, looked up): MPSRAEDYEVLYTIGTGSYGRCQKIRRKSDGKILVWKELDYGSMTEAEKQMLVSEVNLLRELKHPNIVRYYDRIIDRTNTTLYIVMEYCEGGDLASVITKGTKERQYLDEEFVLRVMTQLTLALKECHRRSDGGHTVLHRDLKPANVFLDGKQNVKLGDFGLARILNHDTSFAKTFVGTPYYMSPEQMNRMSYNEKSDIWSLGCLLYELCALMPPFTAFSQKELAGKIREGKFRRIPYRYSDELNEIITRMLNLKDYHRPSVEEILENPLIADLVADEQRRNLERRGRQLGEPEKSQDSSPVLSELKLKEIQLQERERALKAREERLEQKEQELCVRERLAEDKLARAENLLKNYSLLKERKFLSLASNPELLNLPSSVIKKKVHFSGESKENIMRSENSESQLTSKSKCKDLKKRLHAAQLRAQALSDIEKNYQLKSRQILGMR
# assay-method-text: KINOMEscan competition binding
# condition-set: compound 10.0 µM
result-type: kinase still bound, per cent of control (%)

INSERT INTO assay_data (smiles_representation, test_result) VALUES
  ('O=C1NC(=O)/C(=C/c2c[nH]c(=O)c(-c3ccc(N4CCNCC4)nc3)c2)S1', 13),
  ('CN1C(=O)c2ccccc2N(C)c2nc(Nc3ccc(N4CCC(O)CC4)cc3)ncc21', 100),
  ('CN1C(=O)c2ccccc2N(C)c2nc(NS(=O)(=O)c3ccc(N)cc3)ncc21', 100),
  ('COc1cc(N2CCN(C)CC2)ccc1Nc1ncc2c(n1)Nc1ccccc1NC2=O', 84),
  ('COc1cc(N2CCN(C)CC2)ccc1Nc1ncc2c(n1)N1CCC[C@H]1CC(=O)N2', 24);

---

# assayed-target: PIK3CG (human) (UniProt P48736)
# Sequence (P48736 whole entry, looked up): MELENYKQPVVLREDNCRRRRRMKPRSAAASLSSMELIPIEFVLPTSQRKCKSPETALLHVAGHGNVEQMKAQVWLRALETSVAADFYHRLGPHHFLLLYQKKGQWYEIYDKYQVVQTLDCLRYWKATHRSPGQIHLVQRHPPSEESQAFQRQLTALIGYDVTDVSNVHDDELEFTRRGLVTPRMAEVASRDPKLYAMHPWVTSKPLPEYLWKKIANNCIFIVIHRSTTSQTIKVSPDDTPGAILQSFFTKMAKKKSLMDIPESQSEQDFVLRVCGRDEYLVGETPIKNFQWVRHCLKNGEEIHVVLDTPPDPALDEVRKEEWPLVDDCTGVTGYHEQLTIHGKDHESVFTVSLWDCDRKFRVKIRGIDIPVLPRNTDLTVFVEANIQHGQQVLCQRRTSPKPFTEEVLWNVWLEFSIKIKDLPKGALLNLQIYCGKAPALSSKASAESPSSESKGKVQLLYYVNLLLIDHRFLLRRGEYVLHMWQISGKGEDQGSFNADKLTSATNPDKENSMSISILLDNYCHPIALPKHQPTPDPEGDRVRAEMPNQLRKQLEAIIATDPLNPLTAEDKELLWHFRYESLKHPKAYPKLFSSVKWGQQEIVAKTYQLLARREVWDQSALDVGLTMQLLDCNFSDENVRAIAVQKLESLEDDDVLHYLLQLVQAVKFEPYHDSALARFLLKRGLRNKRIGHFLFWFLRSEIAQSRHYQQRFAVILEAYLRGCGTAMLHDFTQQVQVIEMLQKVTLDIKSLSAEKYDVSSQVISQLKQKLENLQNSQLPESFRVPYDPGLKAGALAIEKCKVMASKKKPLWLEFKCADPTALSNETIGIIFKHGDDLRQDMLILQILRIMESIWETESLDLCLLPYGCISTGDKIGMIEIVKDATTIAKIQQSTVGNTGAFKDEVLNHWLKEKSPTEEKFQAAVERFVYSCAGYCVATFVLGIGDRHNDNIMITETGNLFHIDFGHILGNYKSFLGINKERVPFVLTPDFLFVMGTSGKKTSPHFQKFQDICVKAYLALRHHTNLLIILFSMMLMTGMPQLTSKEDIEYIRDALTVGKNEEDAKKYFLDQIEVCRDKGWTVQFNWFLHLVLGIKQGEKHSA
# assay-method-text: KINOMEscan competition binding
# condition-set: compound 10.0 µM
result-type: kinase still bound, per cent of control

INSERT INTO measurements (compound, assayed_target, test_result) VALUES
  ('CN1CCN(c2ccc(C(=O)Nc3ncc4c(n3)N(C)c3ccccc3C(=O)N4C)cc2)CC1', 'PIK3CG (human) (UniProt P48736)', '70%'),
  ('CS(=O)C1=NC(=O)/C(=C/c2ccc(-c3ccc(S(N)(=O)=O)cc3)o2)S1 (stereo unspecified)', 'PIK3CG (human) (UniProt P48736)', '10%'),
  ('O=C1NC(=O)/C(=C/c2ccc(-c3ccc(C(=O)Nc4ccc(N5CCNCC5)cc4)cc3)o2)S1', 'PIK3CG (human) (UniProt P48736)', '17%'),
  ('N=C1NC(=O)/C(=C/c2ccc(-c3ccc(C(=O)Nc4ccc(N5CCNCC5)cc4)cc3O)o2)S1', 'PIK3CG (human) (UniProt P48736)', '2.1%'),
  ('NS(=O)(=O)c1ccc(-c2ccc(/C=C3\SC(=O)NC3=O)o2)cc1', 'PIK3CG (human) (UniProt P48736)', '3.6%'),
  ('O=C1NC(=O)/C(=C/c2ccc(-c3ccc(F)cc3O)o2)S1', 'PIK3CG (human) (UniProt P48736)', '4%'),
  ('O=C1NC(=O)/C(=C/c2c[nH]c(=O)c(-c3ccc(C(=O)Nc4ccc(N5CCNCC5)cc4)cc3)c2)S1', 'PIK3CG (human) (UniProt P48736)', '22%'),
  ('CN1C(=O)c2ccccc2N(C)c2nc(Nc3ccc(N4CCC(O)CC4)cc3)ncc21', 'PIK3CG (human) (UniProt P48736)', '4.2%'),
  ('COc1cc(C(N)=O)ccc1-c1ccc(/C=C2\SC(=N)NC2=O)o1', 'PIK3CG (human) (UniProt P48736)', '28%'),
  ('CS(=O)(=O)Nc1ccc(-c2ccc(/C=C3\SC(=N)NC3=O)o2)cc1', 'PIK3CG (human) (UniProt P48736)', '25%'),
  ('COc1cc(N2CCN(C)CC2)ccc1Nc1ncc2c(n1)N(C)c1sccc1C(=O)N2C', 'PIK3CG (human) (UniProt P48736)', '73%'),
  ('COc1cc(N2CCC(O)CC2)ccc1Nc1ncc2c(n1)N1CCc3cccc(c31)C(=O)N2C', 'PIK3CG (human) (UniProt P48736)', '28%'),
  ('N=C1NC(=O)/C(=C/c2c[nH]c(=O)c(-c3ccc(N4CCNCC4)nc3)c2)S1', 'PIK3CG (human) (UniProt P48736)', '33%'),
  ('CN1C(=O)c2ccccc2N(C)c2nc(NS(=O)(=O)c3ccc(N)cc3)ncc21', 'PIK3CG (human) (UniProt P48736)', '96%'),
  ('NS(=O)(=O)c1ccc(-c2ccc(/C=C3\SC(=S)NC3=O)o2)cc1', 'PIK3CG (human) (UniProt P48736)', '22%'),
  ('CN1C(=O)[C@H]2CCC[C@H]2N(C2CCCC2)c2nc(Nc3ccc(C(N)=O)cc3)ncc21', 'PIK3CG (human) (UniProt P48736)', '11%'),
  ('CSC1=NC(=O)/C(=C/c2c[nH]c(=O)c(-c3ccc(NS(C)(=O)=O)cc3)c2)S1', 'PIK3CG (human) (UniProt P48736)', '13%'),
  ('NS(=O)(=O)c1ccc(-c2cccc(/C=C3\SC(=O)NC3=O)c2)cc1', 'PIK3CG (human) (UniProt P48736)', '10%'),
  ('CN1C(=O)[C@H]2CCC[C@H]2N(C2CCCC2)c2nc(Nc3ccc4ncccc4c3)ncc21', 'PIK3CG (human) (UniProt P48736)', '34%'),
  ('COc1cc(N2CCN(C)CC2)ccc1Nc1ncc2c(n1)N(C)c1ccccc1N(C)C2=O', 'PIK3CG (human) (UniProt P48736)', '100%'),
  ('Nc1cccc(-c2cc(/C=C3\SC(=O)NC3=O)c[nH]c2=O)c1', 'PIK3CG (human) (UniProt P48736)', '11%'),
  ('O=C1NC(=O)/C(=C/c2c[nH]c(=O)c(-c3ccc(N4CCNCC4)nc3)c2)S1', 'PIK3CG (human) (UniProt P48736)', '0.3%'),
  ('COc1cc(N2CCC(O)CC2)ccc1Nc1ncc2c(n1)N(C)c1ccccc1C(=O)N2C', 'PIK3CG (human) (UniProt P48736)', '9.3%'),
  ('COc1cc(N2CCN(C)CC2)ccc1Nc1ncc2c(n1)N(C)c1ccccc1C(=O)N2C', 'PIK3CG (human) (UniProt P48736)', '31%'),
  ('N=C1NC(=O)/C(=C/c2ccc(-c3ccc(F)cc3O)o2)S1', 'PIK3CG (human) (UniProt P48736)', '0%'),
  ('CS(=O)(=O)Nc1ccc(-c2ccc(/C=C3\SC(=N)NC3=O)o2)c(O)c1', 'PIK3CG (human) (UniProt P48736)', '1.6%');

All values here come from the kinase profiling compilation of Christmann-Franck et al. (2016).
